# test-method-notes: blockers of STAT3 transcriptional signaling – U3A cells, luciferase, luminescence, MLSCN library, primary screen (AID 862);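 also: 0% = DMSO only wells and 100% = 100 µM nifuroxazide control wells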
# condition-set: IL-6 STAT3-luciferase reporter, at 5.5 µM, host cell line lacks STAT1
Screen size: about 190,000 compounds; about 1,700 (0.89%) were called active.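 The calls were made as follows: active = inhibition above the mean inhibition across all screened compounds plus 3 SD (cut at about 44% in these data); inactive = the rest.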 This excerpt belongs to a sample that is enriched for actives.
Classes used: YES for active, NO for inactive

entry_smiles=CCN(CC)C(=O)c1ccc(O)c(OC)c1 classification=NO
entry_smiles=O=c1[nH]c(CCl)nc2cc(-c3ccc(Cl)cc3)sc12 classification=YES
entry_smiles=Cc1cc2nc(-c3ccc(NC(=O)c4cccnc4)cc3)oc2cc1C classification=NO
entry_smiles=COc1ccc(OCc2cccc(C(=O)N3CCCC3)c2)cc1 classification=NO
entry_smiles=Cc1ccc(-n2nc3cc(C)c(NC(=O)c4cccnc4)cc3n2)cc1 classification=NO
entry_smiles=Cc1ccc(CN(Cc2cccnc2)C(=S)Nc2cccc(Cl)c2C)cc1 classification=NO
entry_smiles=COC(=O)Cc1ccc(OCC(=O)Nc2ccc(OC(F)(F)F)cc2)cc1 classification=NO
entry_smiles=Cc1nc2ccccc2cc1OCc1ccc(F)cc1 classification=YES
entry_smiles=Cc1cc(-c2nnc(CCC(=O)NC(c3ccccc3)c3ccccc3)o2)no1 classification=NO
entry_smiles=NC(=O)Cc1nc2scc(-c3ccc(Cl)cc3)c2c(=O)[nH]1 classification=NO
entry_smiles=Nc1ccc(Oc2ccc(Cl)cc2)cc1 classification=NO
entry_smiles=Cc1ccc(CCCOC(=O)C[N+]2(C)CCCC2)cc1 classification=NO

====

Quick reference: inhibition of the listed items.
# test-method-notes: blockers of STAT3 transcriptional signaling – U3A cells, luciferase, luminescence, MLSCN library, primary screen (AID 862);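 also: 0% = DMSO only wells and 100% = 100 µM nifuroxazide control wells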
# condition-set: IL-6 STAT3-luciferase reporter, at 5.5 µM, hits give high values, host cell line lacks STAT1
Out of some 190,000 compounds screened, about 1,700 (0.89%) were called active. The list comes from a sample in which actives are over-represented; it also holds close analogues and randomly drawn compounds.
quantity-measured: inhibition (%)

compound=O=S(=O)(Nc1ccccn1)c1ccc(Oc2ccccc2)cc1 unit_name=% quantitative_result=-1.5
compound=COc1ccc(S(=O)(=O)Nc2cccnc2)c(Cl)c1Cl unit_name=% quantitative_result=5.5
compound=COc1ccc(Cn2c(=O)sc3ccccc32)cc1OC unit_name=% quantitative_result=51.6
compound=CN1C(=O)/C(=C/c2ccco2)SC1=Nc1cccc(C(=O)O)c1 unit_name=% quantitative_result=3.5
compound="O=C(COC(=O)C1CC2C=CC1C2)Nc1ccccc1 (stereo unspecified)" unit_name=% quantitative_result=1
compound=CCOCCCNCc1ccc(OCc2ccc(F)cc2)c(OC)c1 unit_name=% quantitative_result=5.2

====

# test-method-notes: blockers of STAT3 transcriptional signaling – U3A cells, luciferase, luminescence, MLSCN library, primary screen (AID 862);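 also: 0% = DMSO only wells and 100% = 100 µM nifuroxazide control wells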
# condition-set: IL-6 STAT3-luciferase reporter, at 5.5 µM, hits give high values, host cell line lacks STAT1
The whole screen tested about 190,000 compounds, of which about 1,700 (0.89%) were called active. What follows is part of a selection rich in actives, with near analogues and random picks from the rest.
quantity-measured: inhibition (%)

molecule=COC(=O)c1sc2[nH]c(=S)n(N)c(=O)c2c1C quantitative_result=8.3
molecule=COc1ccc(S(=O)(=O)Nc2ccc3oc(C)c(C(C)=O)c3c2)cc1 quantitative_result=46
molecule="CCOC(=O)/C(=N\\Nc1ccccc1Cl)N(C)C1CCS(=O)(=O)C1 (stereo unspecified)" quantitative_result=5.4
molecule=COC(=O)CC1=NN(c2ccccc2)C(=O)C1 quantitative_result=3.8
molecule=Cc1cccc(OCCNC(=S)NC(=O)c2cccnc2)c1 quantitative_result=-5
molecule=Cc1noc(C)c1COc1cccc(C(=O)Nc2cccnc2)c1 quantitative_result=14.6
molecule="O=C1NC(Nc2nc3ccccc3s2)(C(F)(F)F)C(=O)N1C1CCCCC1 (stereo unspecified)" quantitative_result=48.9
molecule=Cc1ccc(NC(=O)Nc2ccccc2)c(Br)c1 quantitative_result=16.3
molecule=COc1ccc(/C=C/C2=CC(C)(C)NC(=S)N2)c(OC)c1 quantitative_result=9.7
molecule=O=C(c1cn(-c2ccccc2)nc1-c1cc2ccccc2oc1=O)N1CCOCC1 quantitative_result=11.6
molecule=OCCn1c(-c2ccccc2)csc1=Nc1ccccc1 quantitative_result=46.5
molecule=COc1ccc(N=Cc2c(O)[nH]c3ccccc23)cc1OC quantitative_result=40.4
molecule=COc1ccc(Nc2ncc(F)c(N3CCOCC3)n2)cc1 quantitative_result=50.7
molecule="Cc1cc(NC(=O)CN2C(=O)NC(C)(CCc3ccccc3)C2=O)no1 (stereo unspecified)" quantitative_result=-5.6
molecule="CCCOC(=O)c1[nH]c2c(c1C)C(=O)CC(c1cc(OC)c(OC)c(OC)c1)C2 (stereo unspecified)" quantitative_result=47.1
molecule="COC(=O)NC1(C(F)(F)F)NC(=O)N(C2CCCCC2)C1=O (stereo unspecified)" quantitative_result=7.4
molecule=Cc1cccc(C)c1NC(=O)Nc1ccccc1-n1ccnc1 quantitative_result=4
molecule=COc1cc(NC(=O)CN(C)S(=O)(=O)c2ccc3nc(C)sc3c2)cc(OC)c1 quantitative_result=0.9
molecule=COC(=O)c1nc2ccccc2s1 quantitative_result=-7.8
molecule=COc1ccc(-c2nc3cc([N+](=O)[O-])ccc3o2)cc1OC quantitative_result=20.3
molecule=CCOc1ccc(Nc2nc(Cl)nc(N3CCN(c4ccc(OC)cc4)CC3)n2)cc1 quantitative_result=-0.7
molecule=COc1cc(N=Cc2c(O)[nH]c3ccccc23)cc(OC)c1OC quantitative_result=56
molecule=Nc1ccc(Nc2ccccc2)cc1 quantitative_result=18.1
molecule=CSCCNCc1cn(-c2ccc(F)cc2F)nc1-c1ccccc1C quantitative_result=0.4
molecule=COc1ccc(C(=O)Nc2ccc(-n3nncc3C(C)(C)C)cc2)cc1 quantitative_result=-0.3
molecule=COc1ccc2oc(-c3cccc(NC(=O)CSc4ccc(Cl)cc4)c3)nc2c1 quantitative_result=-4.6
molecule=CC(C)C[C@@H](N)c1nnc(SCC(=O)c2ccc(Cl)cc2)o1 quantitative_result=53.4
molecule=COc1ccc(OC)c(N=Cc2c(O)[nH]c3ccccc23)c1 quantitative_result=22.7
molecule=COc1ccc2oc(C)c(NC(C)=O)c2c1 quantitative_result=4.1
molecule="COCC(C)NC(=O)CSc1nc2nn(-c3ccccc3)c(=O)c-2c2n1CCCCC2 (stereo unspecified)" quantitative_result=2.7
molecule=Fc1ccc(CNCc2ccc(Br)cc2)cc1 quantitative_result=19.2
molecule=c1ccc(Nc2nc(N3CCOCC3)c3ccccc3n2)cc1 quantitative_result=22
molecule="OCCCC1CCCCN1Cc1nc(Cc2ccccc2Cl)no1 (stereo unspecified)" quantitative_result=4.3
molecule=O=C(N/N=C/c1ccc([N+](=O)[O-])o1)c1cn(-c2ccccc2)nc1-c1ccc(F)cc1 quantitative_result=25
molecule=C/C(=N\NC(=O)CNC(=O)C(c1ccccc1)c1ccccc1)c1ccc(C)cc1 quantitative_result=-6.9
molecule=CC(=O)Nc1ccc(C(=O)CSc2nnc(Cc3ccccc3)o2)cc1 quantitative_result=0.2
molecule=CC(C)(C)c1ccc(Oc2ccc(N)cc2)cc1 quantitative_result=76.2
molecule=Cc1cc(C(=O)COc2ccccc2[N+](=O)[O-])c(C)n1-c1cccc(S(=O)(=O)N2CCOCC2)c1 quantitative_result=-4.1
molecule=COc1cc(NS(=O)(=O)c2ccc(NC(C)=O)cc2)cc(OC)c1 quantitative_result=38
molecule="Cc1ccccc1CN(c1ccc(C(=O)NCC2CCCO2)cc1)S(C)(=O)=O (stereo unspecified)" quantitative_result=1
molecule=Cc1cc(C)c2[nH]c(=O)c(CN(Cc3ccccc3)C(=S)NCCCN(C)C)cc2c1 quantitative_result=-4.1
molecule=[O-][n+]1c2c(nn1-c1ccc(Cl)c(Cl)c1)-c1nonc1CC2 quantitative_result=5.8
molecule=O=C1CCCC(O)=C1N=Nc1ccc2ncsc2c1 quantitative_result=-0.2
molecule=Cc1ccc(Nc2nnc(SCc3ccccc3)s2)cc1 quantitative_result=-15.7
molecule=CCOC(=O)CNC(=O)/C(=C\c1ccc(F)cc1)NC(=O)c1ccccc1 quantitative_result=1.9
molecule=CN(Cc1cccnc1)C(=O)c1cc(COc2ccc3ncccc3c2)on1 quantitative_result=79.1

====

# test-method-notes: blockers of STAT3 transcriptional signaling – U3A cells, luciferase, luminescence, MLSCN library, primary screen (AID 862);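 also: 0% = DMSO only wells and 100% = 100 µM nifuroxazide control wells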
# condition-set: IL-6 STAT3-luciferase reporter, at 5.5 µM, host cell line lacks STAT1
Screen size: about 190,000 compounds; about 1,700 (0.89%) were called active.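 Rule for the calls: active = inhibition above the mean inhibition across all screened compounds plus 3 SD (cut at about 44% in these data); inactive = the rest.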 The full list was thinned out, with actives kept by preference.
Classes used: 1 = active, -1 = inactive

compound=CC(=O)c1sc(NC(=O)c2ccc(C)cc2)nc1C classification=-1
compound=CCCCCCn1c(CN2CCCCC2)nc2c1c(=O)n(C)c(=O)n2C classification=-1
compound=Clc1ccc2nc(CSc3ccccc3)cn2c1 classification=1
compound=O=C(CP(=O)(c1ccccc1)c1ccccc1)N1CCOCC1 classification=-1
compound=O=C(Nc1ccccc1)c1ccc2c(c1)OCO2 classification=-1
compound=Cc1ccc(NC(=O)NNC(=O)c2sccc2-n2cccc2)cc1 classification=-1
compound=CCCCCCCCn1c2c(c(=N)c3c1CCC3)CCCC2 classification=1
compound=Cc1nn(CC#N)c(=O)n1N(C)c1ncc(C(F)(F)F)cc1Cl classification=-1
compound=CSC(=S)N/N=C/c1c[nH]c2ccccc12 classification=-1
compound=CCOc1ccc(Br)cc1CSC(=N)N classification=-1
compound=N=C(N)SCc1cccc2ccccc12 classification=1
compound=CCOC(=O)CNC(=O)CSc1ccc2nnc(-c3cccnc3)n2n1 classification=-1
compound="O=C(Nc1nc(-c2ccncc2)cs1)C1COc2ccccc2O1 (stereo not drawn)" classification=-1
compound=Cc1ccc(-n2c(SCC(=O)N/N=C/C=C/c3ccccc3[N+](=O)[O-])nc3ccccc3c2=O)cc1 classification=-1
compound=c1ccc2c(CSCc3nc4ccccc4[nH]3)cccc2c1 classification=-1
compound="Cc1ccsc1C(=O)OCC(=O)c1cc(C)n(CC2CCCO2)c1C (stereo not drawn)" classification=1
compound=OCCNCc1cccc(OCc2ccccc2Cl)c1 classification=-1
compound=Cn1c(SCC(=O)Nc2ccc(Br)cc2F)nnc1-c1ccco1 classification=-1

Hey, just so you know, these numbers are from PubChem BioAssay AID862.
